- System: Wolbachia pipientis
- PROTOCOL: Anti-Wolbachia Cell-Based Screen
- Format: functional
- Set-up: scale not given: in the data most compounds retested in dose-response had high values
- RUN_PARAMETERS: 5 µM
Hit rate of the full screen: of about 48,000 compounds, about 13,000 (27%) showed an effect of 50% or more. The list shows a part of the results.
Reported Percent Effect values for a set of compounds

# COMPOUND, Percent Effect [%]
rows = [
    ("NC(=O)CN1CCC(NC(=O)COc2ccc(Cl)c(Cl)c2)CC1", 99.17),
    ("Cc1nc(C2CCN(S(=O)(=O)c3ccc4c(c3)CCO4)CC2)n[nH]1", 0.09354),
    ("CCC(N)C(=O)N1CCC(OCc2ccc(Cl)c(Cl)c2)CC1.Cl (configuration not stated)", 104.6),
    ("COC(=O)c1ccc(CN2CCC(c3noc(C)n3)CC2)s1", 44.67),
    ("CNC(=O)CN1CCC(c2cc(OC)cc(OC)c2)C1 (configuration not stated)", 8.564),
    ("CC(C)Oc1cccc(CC(=O)NC2CCN(CC(N)=O)CC2)c1", -2.756),
    ("CCOC1CCN(C(=O)NCc2ccc(CN3CCOCC3)cc2)CC1", -24.74),
    ("NC(=O)CN1CCC(Nc2ccnc3ccc(Cl)cc23)CC1", 13.98),
    ("NC(=O)CN1CCC(C(=O)NCc2ccc3nonc3c2)CC1", -14.82),
    ("COc1cccc(COCC(=O)NC2CCN(CC(N)=O)CC2)c1", 5.2),
    ("NC(=O)CN1CCC(OCc2ccc(Cl)c(Cl)c2)CC1", 99.68),
    ("COC(=O)c1ccc(Cn2cccc(C(F)(F)F)c2=O)s1", -1.829),
]

---

- Test system: Wolbachia pipientis
- PROTOCOL: Anti-Wolbachia Cell-Based Screen
- Format: functional
- Design: scale not given: in the data most compounds retested in dose-response had high values
- RUN_PARAMETERS: 5 µM
Screen size: about 48,000 compounds; about 13,000 (27%) showed an effect of 50% or more. The list shows a part of the results.
Percent Effect values for the molecules below.
PROPERTY_NAME: Percent Effect (%)

# MOLECULE, PROPERTY_NAME, NUMERIC_READOUT
measured = [
    ("Cc1cc(N2CCc3c(ncn3C3CC3)C2)nc(N)n1", "Percent Effect", 13.11),
    ("CCCc1nnc(N(C)CC2CCN(CC(C)C)C2)o1 (stereo unspecified)", "Percent Effect", 22.96),
    ("COCCC1COC2(CCN(C(=O)C3CCCCC3)CC2)C1 (stereo unspecified)", "Percent Effect", -0.113),
    ("COCCN(C)C[C@@H]1CCC[C@@H]2CN(c3ncccn3)C[C@@H]21.O=C(O)C(F)(F)F", "Percent Effect", -1.943),
    ("Cc1cc(N2CCc3c(ncn3C)C2)nc(N)n1", "Percent Effect", -0.5866),
    ("Cc1cc(N2CCCC2c2nnc3n2CCCCC3)nc(C)n1 (stereo unspecified)", "Percent Effect", 112.6),
]

---

- System: Wolbachia pipientis
- PROTOCOL: Anti-Wolbachia Cell-Based Screen
- Type: functional
- Set-up: scale not given: in the data most compounds retested in dose-response had high values
- RUN_PARAMETERS: 5 µM
Out of some 48,000 compounds screened, about 13,000 (27%) showed an effect of 50% or more. The list shows a part of the results.
Quick reference for Percent Effect among some molecules
PROPERTY_NAME: Percent Effect

# MOLECULE, SYSTEM, PROPERTY_NAME, RESULT
rows = [
    ("CC(=O)c1cnc(NCC2OCCc3ccccc32)nc1C (configuration not stated)", "Wolbachia pipientis", "Percent Effect", "8.592%"),
    ("Cc1nn(C)c(C)c1CCC(=O)NCC1(C(N)=O)CCOCC1", "Wolbachia pipientis", "Percent Effect", "112%"),
    ("COc1ccc2cccc(CC(=O)NCc3n[nH]c(=O)[nH]3)c2c1", "Wolbachia pipientis", "Percent Effect", "5.869%"),
    ("Cc1nc2scc(C)n2c1CNc1ccc(C(=O)O)cc1", "Wolbachia pipientis", "Percent Effect", "1.868%"),
    ("CC(=O)c1cnc(NCCCN2CCOCC2)nc1C", "Wolbachia pipientis", "Percent Effect", "89.28%"),
    ("COc1ccc2c(c1)c(-c1nc(N(C)C)ncc1CN)cn2C", "Wolbachia pipientis", "Percent Effect", "69.63%"),
    ("CC(C)Sc1nnc(CCNC(=O)OC(C)(C)C)o1", "Wolbachia pipientis", "Percent Effect", "12.98%"),
    ("Cc1csc(C2(NC(=O)NCCN3CCOCC3)CCC2)n1", "Wolbachia pipientis", "Percent Effect", "-15.32%"),
    ("Cc1nn(C)c(C)c1CC(=O)NCC1(C(N)=O)CCOCC1", "Wolbachia pipientis", "Percent Effect", "121.1%"),
    ("COc1ccc(-c2ccccc2CN)c(OC)c1", "Wolbachia pipientis", "Percent Effect", "-11.71%"),
    ("COc1ccc2cccc(CC(=O)NCc3nccc(N)n3)c2c1", "Wolbachia pipientis", "Percent Effect", "-13.23%"),
    ("CN(C)C(=O)c1cccc(CCNc2ccccc2S(C)(=O)=O)c1", "Wolbachia pipientis", "Percent Effect", "-12.66%"),
]
